- tested_system: BACE (Homo sapiens, UniProt P56817)
- Sequence (P56817 46-501, species assumed): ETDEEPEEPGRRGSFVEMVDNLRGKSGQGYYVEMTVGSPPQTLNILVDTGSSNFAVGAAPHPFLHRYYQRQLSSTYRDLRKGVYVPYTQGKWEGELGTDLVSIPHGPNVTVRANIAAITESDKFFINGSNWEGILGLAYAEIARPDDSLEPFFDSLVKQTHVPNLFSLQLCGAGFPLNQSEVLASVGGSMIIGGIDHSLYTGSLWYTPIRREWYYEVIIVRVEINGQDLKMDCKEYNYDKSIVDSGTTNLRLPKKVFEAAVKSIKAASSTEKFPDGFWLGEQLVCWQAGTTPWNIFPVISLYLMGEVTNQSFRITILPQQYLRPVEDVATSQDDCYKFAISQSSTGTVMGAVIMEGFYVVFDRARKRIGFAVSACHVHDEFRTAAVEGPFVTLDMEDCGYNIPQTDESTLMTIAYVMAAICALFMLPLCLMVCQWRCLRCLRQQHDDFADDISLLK
pIC50: −log10 of the molar value.
experimental_readout: pIC50

Reference set (3 entries):
INSERT INTO assay_data (molecule, reported_measurement) VALUES
  ('NC1=N[C@@]2(CCO1)c1cc(-c3cccnc3F)ccc1Oc1cnc(C3=CCOCC3)cc12 [Example 111]', 8.74),
  ('CC(C)(C)COc1cnc2c(c1)[C@]1(CCOC(N)=N1)c1cc(-c3cccnc3F)ccc1O2 [Example 62]', 8.60),
  ('NC1=N[C@@]2(COC1)c1cc(-c3cc(F)ccc3F)ccc1Oc1ncc(C3CCOCC3)cc12 [compound 215]', 8.43);

1: CC(C)(C)COc1cc2c(cn1)Oc1ccc(N3CCC(F)(F)CC3)cc1[C@@]21COCC(N)=N1 [Example 44]
2: NC1=N[C@@]2(CCS1)c1cc(-c3cccnc3F)ccc1Oc1cnc(-c3ccnc(F)c3)cc12 [compound 188]
Qu. Identify the entry with the smaller pIC50: 1 or 2 . Mark your answer with the label of the selected entry.
Ans. 1

A: NC1=N[C@]2(COC1)c1cc(-c3cccnc3F)ccc1Oc1c(F)cc(-c3ccnc(F)c3)cc12 [36B]
B: C[C@H]1COC(N)=N[C@@]12c1cc(-c3cccnc3F)ccc1Oc1cnc(C3=CCCOC3)cc12 [compound 263]
Qu. Lab note: check whether A or B shows the higher recorded pIC50. Mark your answer with the label of the selected entry.
Ans. A
(A: 6.85, B: 6.35)

----------
- tested_system: BACE (Homo sapiens)
pIC50: −log10 of the molar value.
experimental_readout: pIC50

Reference set (6 entries):
INSERT INTO results (molecule, tested_system, reported_measurement) VALUES
  ('NC1=N[C@@]2(COC1)c1cc(-c3cnccc3F)ccc1Oc1cnc(-c3ccnc(F)c3)cc12 [compound 118]', 'BACE (Homo sapiens)', 9.40),
  ('NC1=N[C@@]2(COC1)c1cc(-c3cncnc3)ccc1Oc1cnc(-c3ccc(F)c(F)c3)cc12 [compound 79]', 'BACE (Homo sapiens)', 9.52),
  ('CC(C)C#Cc1cnc2c(c1)[C@]1(COCC(N)=N1)c1cc(-c3cccnc3F)ccc1O2 [compound 213]', 'BACE (Homo sapiens)', 9.22),
  ('Cc1ccc(-c2cnc3c(c2)[C@]2(COCC(N)=N2)c2cc(-c4cccnc4F)ccc2O3)cc1 [Example 90]', 'BACE (Homo sapiens)', 9.22),
  ('CC(C)(C)COc1ccc2c(c1)[C@]1(COCC(N)=N1)c1cc(Br)ccc1O2 [compound 135]', 'BACE (Homo sapiens)', 6.99),
  ('NC1=N[C@]2(CO[C@H]1C1CCCCC1)c1cc(-c3cccnc3F)ccc1Oc1cnc(Cl)cc12 (racemic) [Example 56B]', 'BACE (Homo sapiens)', 5.89);

A: NC1=N[C@@]2(COC1)c1cc(-c3cccnc3F)ccc1Oc1c2cc(N2CCC(F)(F)CC2)nc1F [Example 129, 2,2,2-trifluoroacetate]
B: NC1=NC2(COC1)c1cc(Br)ccc1Oc1cnc(Cl)cc12 (centres unmarked) [compound 9]
Qu. Identify the entry with the smaller pIC50: A or B . Mark your answer with the label of the selected entry.
Ans. B

----------
- System: Aβ40
- procedure_summary: In vitro BACE cell-based assay (Aβ40 sandwich ELISA, cells stably expressing APP)
- run_conditions: Homo sapiens, HEK293, average IC50; read-out: HEK cell assay
pIC50: −log10 of the molar value.
experimental_readout: pIC50

INSERT INTO results (molecule, tested_system, reported_measurement) VALUES
  ('CC(C)C#Cc1cnc2c(c1)[C@]1(COCC(N)=N1)c1cc(-c3cccnc3F)ccc1O2', 'Aβ40', 9.00),
  ('NC1=N[C@@]2(CCO1)c1cc(-c3cccnc3F)ccc1Oc1ncc(C3=CCCOC3)cc12', 'Aβ40', 7.66),
  ('NC1=N[C@@]2(CCO1)c1cc(-c3cccnc3F)ccc1Oc1c(F)cc(-c3cccnc3)cc12', 'Aβ40', 8.20);

A: NC1=N[C@]2(CCS1)c1cc(-c3cccnc3F)ccc1Oc1c(F)cc(C3=CCOCC3)cc12
B: CC(C)(F)COc1cc(F)c2c(c1)[C@@]1(CCSC(N)=N1)c1cc(-c3cccnc3F)ccc1O2
C: NC1=N[C@@]2(CCO1)c1cc(-c3cccnc3)ccc1Oc1c(F)cc(C3=CCCOC3)cc12
D: NC1=N[C@@]2(COC1)c1cc(-c3cccnc3)ccc1Oc1c2cc(C2=CCCOC2)nc1F
E: CC(C)(C)COc1ccc2c(c1)[C@]1(COCC(N)=N1)c1cc(Br)ccc1O2 [Example 67a]
Qu. Place the items in sequence of falling pIC50. Output spec: labels arranged per the requested ranking.
Ans. D, C, A, E, B
(D: 10.00, C: 8.57, A: 7.08, E: 6.23, B: 5.61)

P: NC1=N[C@]2(CCO1)c1cc(-c3cccnc3F)ccc1Oc1c2cc(-c2cccnc2)nc1F
Q: NC1=N[C@@]2(CCO1)c1cc(-c3cncc(F)c3)ccc1Oc1c2cc(C2=CCCOC2)nc1F
Qu. Identify the entry with the smaller pIC50: P or Q . Mark your answer with the label of the selected entry.
Ans. P
(P: 7.00, Q: 9.30)

I: NC1=N[C@@]2(COC1)c1cc(-c3cc(F)ccc3F)ccc1Oc1ncc(-c3cccnc3)cc12
II: NC1=N[C@]2(CCO1)c1cc(-c3cccnc3F)ccc1Oc1c(F)cc(C3=CCOCC3)cc12
Qu. Identify the entry with the smaller pIC50: I or II . Mark your answer with the label of the selected entry.
Ans. II

----------
- tested_system: BACE (Homo sapiens, UniProt P56817)
pIC50: −log10 of the molar value.
experimental_readout: pIC50

Reference set (5 entries):
INSERT INTO results (compound, reported_measurement) VALUES
  ('NC1=N[C@]2(CCO1)c1cc(-c3cccnc3F)ccc1Oc1cnc(-c3cccnc3)cc12', 6.88),
  ('CCOc1cc2c(cn1)Oc1ccc(-c3cncc(Cl)c3)cc1[C@@]21COCC(N)=N1', 9.00),
  ('NC1=N[C@@]2(COC1)c1cc(-c3cccnc3F)ccc1Oc1cnc(OC(F)F)cc12', 8.17),
  ('NC1=NC2(CCO1)c1cc(-c3cccnc3F)ccc1Oc1c2cc(-c2cccnc2F)nc1F (centres unmarked)', 7.84),
  ('CC1COC(N)=N[C@]12c1cc(-c3cccnc3F)ccc1Oc1cnc(C3=CCCOC3)cc12 (some centres unmarked)', 8.43);

A: NC1=N[C@@]2(CCO1)c1cc(-c3cncc(F)c3)ccc1Oc1cnc(C3=CCCOC3)cc12
B: NC1=N[C@@]2(CCO1)c1cc(-c3cncc(F)c3)ccc1Oc1cnc(C3=CCOCC3)cc12
C: NC1=N[C@@]2(CO[C@@H]1C(F)(F)F)c1cc(Br)ccc1Oc1cnc(Cl)cc12
Qu. Place the items in sequence of falling pIC50. Output spec: labels arranged per the requested ranking.
Ans. A, B, C

----------
- tested_system: UniProtKB P56817
experimental_readout: IC50 (nM)

Reference set (2 entries):
INSERT INTO results (structure_smiles, experimental_readout, reported_measurement) VALUES
  ('NC1=N[C@@]2(CCO1)c1cc(-c3cncc(F)c3)ccc1Oc1cnc(-c3cccnc3)cc12', 'IC50', 10.8),
  ('NC1=N[C@]2(CCO1)c1cc(-c3cncc(F)c3)ccc1Oc1c2cc(C2=CCCOC2)nc1F', 'IC50', 793);

A: CC(C)(C#N)COc1cc2c(cn1)Oc1ccc(-c3cc(Cl)ccc3F)cc1[C@@]21COCC(N)=N1
B: NC1=N[C@@]2(CCO1)c1cc(-c3cccnc3F)ccc1Oc1c2cc(-c2cccnc2F)nc1F
Qu. Identify the entry with the smaller IC50: A or B . Mark your answer with the label of the selected entry.
Ans. A
(A: 0.3 nM, B: 20.6 nM)

----------
Consider the following IC50 values measured on BACE (Homo sapiens).
experimental_readout: IC50 (nM)

INSERT INTO assay_data (compound, tested_system, unit_string, reported_measurement) VALUES
  ('NC1=N[C@]2(COC1)c1cc(C3=CCCOC3)ccc1Oc1ccc(-c3cccnc3F)cc12 [compound 130]', 'BACE (Homo sapiens)', 'nM', 0.7);

A: CC1(COc2cc(F)c3c(c2)[C@]2(COCC(N)=N2)c2cc(-c4cccnc4F)ccc2O3)COC1 [compound 83]
B: NC1=N[C@@]2(COC1)c1cc(O)ccc1Oc1c(F)cc(-c3ccnc(F)c3)cc12 [Example 39]
Qu. Lab note: check whether A or B shows the higher recorded IC50. Mark your answer with the label of the selected entry.
Ans. B
(B: 368 nM, A: 0.4 nM)

----------
- System: Aβ40
- procedure_summary: In vitro BACE cell-based assay (Aβ40 sandwich ELISA, cells stably expressing APP)
- run_conditions: Homo sapiens, HEK293, average IC50, cell assay, HEK cells
pIC50: −log10 of the molar value.
experimental_readout: pIC50

INSERT INTO results (structure_smiles, tested_system, reported_measurement) VALUES
  ('NC1=N[C@]2(COC1)c1cc(-c3ccnc(F)c3)ccc1Oc1ccc(-c3cccnc3F)cc12', 'Aβ40', 7.74),
  ('NC1=N[C@@]2(CCO1)c1cc(-c3cccnc3F)ccc1Oc1cnc(C3=CCCOC3)cc12', 'Aβ40', 8.59),
  ('COc1cc2c(cn1)Oc1ccc(-c3cccnc3F)cc1[C@@]21COCC(N)=N1', 'Aβ40', 8.48),
  ('NC1=N[C@@]2(COC1)c1cc(-c3cccnc3F)ccc1Oc1ncc(-c3ccc(F)cc3)cc12', 'Aβ40', 9.15),
  ('NC1=N[C@@]2(CCO1)c1cc(-c3cccnc3F)ccc1Oc1c2cc(C2=CCOCC2)nc1F', 'Aβ40', 9.22);

I: CC1(C#Cc2cnc3c(c2)[C@]2(COCC(N)=N2)c2cc(-c4cccnc4F)ccc2O3)COC1
II: NC1=N[C@@]2(CCO1)c1cc(-c3cccnc3F)ccc1Oc1cnc(-c3ccnc(F)c3)cc12
Qu. Lab note: check whether I or II shows the higher recorded pIC50. Mark your answer with the label of the selected entry.
Ans. I

Source listed as patent US9012446B2.
